All values here come from ChEMBL document CHEMBL2074457.

Test target: Solute carrier organic anion transporter family member 1B3 (Homo sapiens)
Sequence (Q9NPD5 whole entry): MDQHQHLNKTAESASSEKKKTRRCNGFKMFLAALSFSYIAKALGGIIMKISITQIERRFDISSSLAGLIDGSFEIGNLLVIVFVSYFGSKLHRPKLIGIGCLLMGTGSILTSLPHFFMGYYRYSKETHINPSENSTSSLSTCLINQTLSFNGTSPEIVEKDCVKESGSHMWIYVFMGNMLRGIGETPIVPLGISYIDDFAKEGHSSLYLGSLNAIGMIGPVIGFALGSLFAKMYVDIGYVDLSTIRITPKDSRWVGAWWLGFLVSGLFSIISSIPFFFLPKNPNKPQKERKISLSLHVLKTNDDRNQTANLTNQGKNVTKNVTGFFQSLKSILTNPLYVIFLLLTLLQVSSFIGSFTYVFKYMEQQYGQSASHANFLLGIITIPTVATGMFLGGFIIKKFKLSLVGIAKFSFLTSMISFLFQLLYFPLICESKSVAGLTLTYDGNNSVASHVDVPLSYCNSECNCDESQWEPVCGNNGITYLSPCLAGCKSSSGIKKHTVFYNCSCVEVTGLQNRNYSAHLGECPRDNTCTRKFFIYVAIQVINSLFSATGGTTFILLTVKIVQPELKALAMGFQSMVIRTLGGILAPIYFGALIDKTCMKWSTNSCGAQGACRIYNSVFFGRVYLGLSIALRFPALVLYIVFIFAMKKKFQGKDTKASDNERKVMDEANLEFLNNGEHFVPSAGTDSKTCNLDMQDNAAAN
Assay text: TP_TRANSPORTER: uptake in Xenopus laevis oocytes
Format: functional, cell-based, Oocyte
Reported conditions: Xenopus laevis oocytes expressing SLCO1B3 (OATP1B3)
Reported Km by item:
Field: numeric (µM). Do not append units.

Molecule: CN(Cc1cnc2nc(N)nc(N)c2n1)c1ccc(C(=O)N[C@@H](CCC(=O)O)C(=O)O)cc1 [METHOTREXATE]
Km / µM: 24.7

Next molecule, please.
Problem: Give Km for the following molecule: N[C@@H](Cc1cc(I)c(Oc2ccc(O)c(I)c2)c(I)c1)C(=O)O
Solution: 6.4
